Recorded EC50, ADCC reporter assay, n = 3 values for a group of binders are listed next.
Biological target: Human PD-L1 expressed on cells (human, UniProt Q9NZQ7 19-290)
Sequence (Q9NZQ7 19-290 limits assumed): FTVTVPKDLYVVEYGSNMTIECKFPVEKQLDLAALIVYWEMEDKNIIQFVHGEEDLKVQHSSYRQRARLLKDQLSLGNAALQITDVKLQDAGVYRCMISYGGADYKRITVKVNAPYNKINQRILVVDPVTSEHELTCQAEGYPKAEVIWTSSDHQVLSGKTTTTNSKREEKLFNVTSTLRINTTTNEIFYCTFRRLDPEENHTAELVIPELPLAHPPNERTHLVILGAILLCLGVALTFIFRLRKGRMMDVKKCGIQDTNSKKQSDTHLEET
Assay: cell-based or functional assay
Express the result in nM but write the number alone.

Recorded EC50, ADCC reporter assay, n = 3, per entry:
>>> endpoint_result("414B06 (antibody, V domains shown, also called 414606) VH: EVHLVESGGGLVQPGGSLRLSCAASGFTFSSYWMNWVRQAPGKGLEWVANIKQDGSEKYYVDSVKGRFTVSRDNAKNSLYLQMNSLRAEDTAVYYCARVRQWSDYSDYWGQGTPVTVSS VL: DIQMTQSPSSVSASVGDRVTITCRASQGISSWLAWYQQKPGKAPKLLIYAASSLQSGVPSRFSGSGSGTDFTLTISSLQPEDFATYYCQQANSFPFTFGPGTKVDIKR")
0.0242
>>> endpoint_result("416E01 (human IgG1) (antibody, V domains shown) VH: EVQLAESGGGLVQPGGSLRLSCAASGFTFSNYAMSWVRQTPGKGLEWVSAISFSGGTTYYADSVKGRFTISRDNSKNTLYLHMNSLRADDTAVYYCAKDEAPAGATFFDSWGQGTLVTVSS VL: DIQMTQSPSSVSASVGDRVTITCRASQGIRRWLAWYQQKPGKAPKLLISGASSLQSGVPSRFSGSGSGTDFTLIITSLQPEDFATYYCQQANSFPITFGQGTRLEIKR")
0.0229
>>> endpoint_result("413G05 (antibody, human IgG1, kappa, V domains shown) VH: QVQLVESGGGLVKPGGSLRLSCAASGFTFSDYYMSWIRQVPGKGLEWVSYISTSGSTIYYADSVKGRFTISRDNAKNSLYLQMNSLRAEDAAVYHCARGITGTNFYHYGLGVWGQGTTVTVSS VL: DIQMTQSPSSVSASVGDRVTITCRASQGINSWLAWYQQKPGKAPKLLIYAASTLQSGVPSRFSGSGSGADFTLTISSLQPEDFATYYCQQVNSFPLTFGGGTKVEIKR")
0.0275

Switching to the query record.
In: Recorded EC50, ADCC reporter assay, n = 3 for 84G09 (human IgG1) (antibody, V domains shown, also called clone 84609; lead antibody) VH: EVQLVESGGGLVQPGRSLRLSCAASGFTFDDYAMHWVRQTPGKGLEWVSGISWKSNIIGYADSVKGRFTISRDNAKNSLYLQMNSLRAEDTALYYCARDITGSGSYGWFDPWGQGTLVTVSS VL: DIQMTQSPSSLSASVGDRVTITCRASQSISSYLNWYQQKPGKAPKPLIYVASSLQSGVPSSFSGSGSGTDFTLTISSLQPEDFATYYCQQSYSNPITFGQGTRLEIKR , please?
Out: 0.0259

Measured values drawn from patent US20210380699A1 for this set.
